# assay-details: Pharmacokinetic study in mice
# Type: in vivo
# assay-conditions: mouse, po; male mice, p.o. (10 mg/kg), plasma; read-out: AUC0-t
metric-name: AUC(0-t) (ng·h/mL)

>  <molecule>
Cc1cnc2c(C(=O)Nc3cc4c(cc3N3CCC(CO)CC3)OC3(CCN(C[C@H]5CC[C@H](OCC#Cc6cccc7c6n(C)c(=O)n7C6CCC(=O)NC6=O)CC5)CC3)C4)cnn2c1 (stereo partly shown) [Compound 36]

>  <metric-name>
AUC(0-t)

>  <uom>
ng·h/mL

>  <reading>
18000

$$$$
>  <molecule>
Cn1c(=O)n(C2CCC(=O)NC2=O)c2cccc(N3CCC(CN4CCC5(CC4)Cc4cc(NC(=O)c6cnn7cccnc67)c(N6CCC(CO)CC6)cc4O5)CC3)c21 (stereo not shown) [Example 78]

>  <metric-name>
AUC(0-t)

>  <uom>
ng·h/mL

>  <reading>
44900

$$$$
>  <molecule>
Cn1c(=O)n(C2CCC(=O)NC2=O)c2cccc(C#CCO[C@H]3CC[C@H](CN4CCC5(CC4)Cc4cc(NC(=O)c6cnn7cc(Cl)cnc67)c(N6CCC(CO)CC6)cc4O5)CC3)c21 (stereo partly shown) [Compound 37]

>  <metric-name>
AUC(0-t)

>  <uom>
ng·h/mL

>  <reading>
29300

$$$$
>  <molecule>
Cn1c(=O)n(C2CCC(=O)NC2=O)c2cccc(C#CCO[C@H]3CC[C@H](CN4CCC5(CC4)Cc4cc(NC(=O)c6cnn7cccnc67)c(N6CCC(C(C)(C)O)CC6)cc4O5)CC3)c21 (stereo partly shown) [Compound 41]

>  <metric-name>
AUC(0-t)

>  <uom>
ng·h/mL

>  <reading>
21200

$$$$

----------
# target: UniProtKB Q9NWZ3
# assay-details: IRAK4 Degradation Assay in THP-1 Cells (Western Blot)
# Format: cell-based
# Set-up: endogenous in cells; host or cells: THP-1 cells
# assay-conditions: THP-1 cells, 24 hours, 0.0128 to 1000 nM, IRAK4 protein level by Western Blot; read-out: DC50
metric-name: DC50 (nM)

>  <compound>
Cn1c(=O)n(C2CCC(=O)NC2=O)c2cccc(CN3CCC(CCN4CCC5(CC4)Cc4cc(NC(=O)c6coc7cccnc67)c(N6CCC(CO)CC6)cc4O5)CC3)c21 (centres unmarked)

>  <DC50 / nM>
4.14

$$$$

(P) Cn1c(=O)n(C2CCC(=O)NC2=O)c2cccc(C#CCO[C@H]3CC[C@H](CN4CCC5(CC4)Cc4cc(NC(=O)c6coc7cccnc67)c(N6CCC(CO)CC6)cc4C5)CC3)c21 (some centres unmarked)
(Q) Cn1c(=O)n(C2CCC(=O)NC2=O)c2cccc(C#CCO[C@H]3CC[C@@H](CN4CCC5(CC4)Cc4cc(NC(=O)c6coc7cccnc67)c(N6CCC(CO)CC6)cc4O5)CC3)c21 (some centres unmarked)
Task: Could you tell me which of P and Q has the lower DC50 reading? Give the label of your selection.
Output: P
(P: 5.25 nM, Q: 7.79 nM)

----------
# target: IRAK4 protein (Homo sapiens, UniProt Q9NWZ3)
# assay-details: IRAK4 Degradation Assay in THP-1 Cells (Western Blot)
# Type: cell-based
# Set-up: endogenous in cells; host or cells: THP-1 cells
# assay-conditions: THP-1 cells, 24 hours, 0.0128 to 1000 nM, IRAK4 protein level by Western Blot; read-out: Dmax%
metric-name: Dmax (%)

>  <compound>
Cn1c(=O)n(C2CCC(=O)NC2=O)c2cccc(C#CCOC3CCN(CCN4CCC5(CC4)Oc4cc(NC(=O)c6coc7cccnc67)c(N6CCC(CO)CC6)cc4O5)CC3)c21 (stereo not shown) [Compound 29]

>  <uom>
%

>  <Dmax>
92.8

$$$$
>  <compound>
Cn1c(=O)n(C2CCC(=O)NC2=O)c2cccc(CN3CCC4(CC3)CN(CCN3CCC5(CC3)Cc3cc(NC(=O)c6cnn7cccnc67)c(N6CCC(CO)CC6)cc3O5)C4)c21 (stereo not shown) [Compound 32]

>  <uom>
%

>  <Dmax>
95.4

$$$$
>  <compound>
Cc1cnc2c(C(=O)Nc3cc4c(cc3N3CCC(CO)CC3)OC3(CCN(C[C@H]5CC[C@H](OCC#Cc6cccc7c6n(C)c(=O)n7C6CCC(=O)NC6=O)CC5)CC3)C4)cnn2c1 (stereo partly shown) [Compound 36]

>  <uom>
%

>  <Dmax>
86.5

$$$$
>  <compound>
Cn1c(=O)n(C2CCC(=O)NC2=O)c2cccc(C#CCO[C@H]3CC[C@H](CN4CCC5(CC4)Cc4cc(NC(=O)c6coc7cccnc67)c(N6CCC(CO)CC6)cc4O5)CC3)c21 (stereo partly shown) [Compound 35]

>  <uom>
%

>  <Dmax>
93.4

$$$$

----------
# assay-details: Pharmacokinetic study in mice
# Format: in vivo
# assay-conditions: male mice, p.o. (10 mg/kg), plasma
# Description: Six male mice weighing 20-30 g were randomly divided into two groups. […] Plasma samples were processed and analyzed using LC/MS/MS in MRM)mode. A validated standard curve was established for the quantitative determination of the target compound in plasma, enabling the generation of plasma drug concentration-time profiles. Pharmacokinetic parameters were calculated using WinNonlin software with a non-compartmental model.
metric-name: AUC(0-t) (ng·h/mL)

In the examples that follow, each entry is paired with its recorded AUC(0-t).
>  <molecule>
Cn1c(=O)n(C2CCC(=O)NC2=O)c2cccc(C#CCO[C@H]3CC[C@H](CN4CCC5(CC4)Cc4cc(NC(=O)c6cnn7cc(F)cnc67)c(N6CCC(CO)CC6)cc4O5)CC3)c21 (some centres unmarked)

>  <uom>
ng·h/mL

>  <reading>
26962

$$$$
>  <molecule>
Cn1c(=O)n(C2CCC(=O)NC2=O)c2cccc(C#CCO[C@H]3CC[C@H](CN4CCC5(CC4)Cc4cc(NC(=O)c6cnn7cccnc67)c(N6CCC(CO)CC6)cc4O5)CC3)c21 (relative stereo)

>  <uom>
ng·h/mL

>  <reading>
14793

$$$$

(a) Cn1c(=O)n(C2CCC(=O)NC2=O)c2cccc(C#CCO[C@H]3CC[C@H](CN4CCC5(CC4)Cc4cc(NC(=O)c6cnn7cccnc67)c(N6CCC(O)CC6)cc4O5)CC3)c21 (some centres unmarked)
(b) Cn1c(=O)n(C2CCC(=O)NC2=O)c2cccc(C#CCO[C@H]3CC[C@H](CN4CCC5(CC4)Cc4cc(NC(=O)c6cnc7cccnn67)c(N6CCC(CO)CC6)cc4O5)CC3)c21 (some centres unmarked)
(c) Cn1c(=O)n(C2CCC(=O)NC2=O)c2cccc(C#CCO[C@H]3CC[C@H](CN4CCC5(CC4)Cc4cc(NC(=O)c6coc7cccnc67)c(N6CCC(CO)CC6)cc4O5)CC3)c21 (some centres unmarked)
Task: Put the molecules in ascending order of AUC(0-t). Note for the reader: the ranking is given by listing the labels in the order requested.
Output: b, c, a
(b: 7391 ng·h/mL, c: 23388 ng·h/mL, a: 42143 ng·h/mL)

----------
# target: IRAK4 protein (Homo sapiens, UniProt Q9NWZ3)
# Sequence (Q9NWZ3 1-460): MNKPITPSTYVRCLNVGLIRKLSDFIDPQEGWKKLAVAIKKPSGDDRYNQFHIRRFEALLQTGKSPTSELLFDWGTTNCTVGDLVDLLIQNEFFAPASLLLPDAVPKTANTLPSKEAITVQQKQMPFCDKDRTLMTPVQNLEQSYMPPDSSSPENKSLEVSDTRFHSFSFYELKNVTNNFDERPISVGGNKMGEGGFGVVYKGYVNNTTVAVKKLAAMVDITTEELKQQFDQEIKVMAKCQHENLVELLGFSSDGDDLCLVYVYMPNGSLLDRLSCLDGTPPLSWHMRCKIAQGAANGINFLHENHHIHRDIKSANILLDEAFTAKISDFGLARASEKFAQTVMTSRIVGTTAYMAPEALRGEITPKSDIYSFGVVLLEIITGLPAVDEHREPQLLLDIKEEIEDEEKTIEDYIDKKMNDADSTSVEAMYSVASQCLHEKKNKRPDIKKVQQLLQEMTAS
# assay-details: IRAK4 Degradation Assay in THP-1 Cells (Western Blot)
# Format: cell-based
# Parameters: endogenous in cells; host or cells: THP-1 cells
# assay-conditions: THP-1 cells, 24 hours, 0.0128 to 1000 nM, IRAK4 protein level by Western Blot; read-out: Dmax%
metric-name: Dmax (%)

>  <compound>
Cn1c(=O)n(C2CCC(=O)NC2=O)c2cccc(C#CCO[C@H]3CC[C@H](CN4CCC5(Cc6cc(NC(=O)c7coc8cccnc78)c(N7CCC(CO)CC7)cc6O5)C4)CC3)c21 (stereo partly shown)

>  <Dmax [%]>
91.1

$$$$
>  <compound>
Cc1cc(-c2nc(C(=O)Nc3cc4c(cc3N3CCC(O)CC3)OC3(CCN(C[C@H]5CC[C@H](OCC#Cc6cccc7c6n(C)c(=O)n7C6CCC(=O)NC6=O)CC5)CC3)C4)co2)ccn1 (stereo partly shown)

>  <Dmax [%]>
89

$$$$
>  <compound>
Cn1c(=O)n(C2CCC(=O)NC2=O)c2cccc(C#CCO[C@H]3CC[C@@H](CN4CCC5(Cc6cc(NC(=O)c7cnn8cccnc78)c(N7CCC(CO)CC7)cc6O5)C4)CC3)c21 (stereo partly shown)

>  <Dmax [%]>
85.6

$$$$
>  <compound>
Cn1c(=O)n(C2CCC(=O)NC2=O)c2cccc(C#CCOC3CCN(CCN4CCC5(CC4)Oc4cc(NC(=O)c6cnn7cccnc67)c(N6CCC(CO)CC6)cc4O5)CC3)c21 (stereo not shown)

>  <Dmax [%]>
86.5

$$$$
>  <compound>
Cn1c(=O)n(C2CCC(=O)NC2=O)c2cccc(CN3CC4(CCN(CCN5CCC6(CC5)Cc5cc(NC(=O)c7cnn8cccnc78)c(N7CCC(CO)CC7)cc5O6)CC4)C3)c21 (stereo not shown)

>  <Dmax [%]>
94.8

$$$$
>  <compound>
Cn1c(=O)n(C2CCC(=O)NC2=O)c2cccc(C#CCOC3CCN(CCN4CCC5(Cc6cc(NC(=O)c7coc8cccnc78)c(N7CCC(CO)CC7)cc6O5)C4)CC3)c21 (stereo not shown)

>  <Dmax [%]>
88.3

$$$$
>  <compound>
Cn1c(=O)n(C2CCC(=O)NC2=O)c2cccc(CN3CCC(CCN4CCC5(CC4)Oc4cc(NC(=O)c6coc7cccnc67)c(N6CCC(CO)CC6)cc4O5)CC3)c21 (stereo not shown)

>  <Dmax [%]>
89.2

$$$$
>  <compound>
Cn1c(=O)n(C2CCC(=O)NC2=O)c2cccc(C#CCO[C@H]3CC[C@H](CN4CCC5(CC4)Cc4cc(NC(=O)c6cnn7cc(Cl)cnc67)c(N6CCC(CO)CC6)cc4O5)CC3)c21 (stereo partly shown)

>  <Dmax [%]>
90.5

$$$$
>  <compound>
Cn1c(=O)n(C2CCC(=O)NC2=O)c2cccc(C#CCO[C@H]3CC[C@H](CN4CCC5(CC4)Cc4cc(NC(=O)c6cnn7cccnc67)c(N6CCC(C(C)(C)O)CC6)cc4O5)CC3)c21 (stereo partly shown)

>  <Dmax [%]>
90.5

$$$$
>  <compound>
Cn1c(=O)n(C2CCC(=O)NC2=O)c2cccc(C#CCO[C@H]3CC[C@H](CN4CCC5(CC4)Cc4cc(NC(=O)c6coc7cccnc67)c(N6CCC(CO)CC6)cc4C5)CC3)c21 (stereo partly shown)

>  <Dmax [%]>
89.2

$$$$
